The reported numbers originate from PubChem BioAssay AID1159580.

- Assay text: chemical genetic growth profiling, strain panel (AID 1159580);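 note: tested at 20 µM; growth read once vehicle control cultures reached saturation at 30 °C; 1 = growth at the plate median or of vehicle wells; lower values mean less growth of the strain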
- Conditions used: S. cerevisiae deletion strains, growth OD, locus YLR058C, strain SHM2
Out of some 5,500 compounds screened, about 2,000 (36%) were called active. Roughly 18% stayed inconclusive and do not appear here. Cut-off read from the data, not from the text of the source: active = normalized growth mostly below about 0.91 (no sharp cut-off); inconclusive = no clear call, values can overlap the other calls; inactive = mostly above about 0.92. Some of the results follow.
Use one of these outcomes when replying: true = active, false = inactive

Use these answered entries as a reference point.
Compound: COc1cc(OC)c2c(c1)OC(c1ccccc1)CC2=O (stereo not given)
Label: false
--
Compound: C[C@@H]1O[C@@H](O[C@H]2[C@@H](Oc3cc(O)c4c(c3)O[C@H](c3ccc(O)cc3)CC4=O)O[C@H](CO)[C@@H](O)[C@@H]2O)[C@H](O)[C@H](O)[C@H]1O
Label: false
--
Compound: COc1ccc(C2CC(=O)c3ccc(OC)cc3O2)cc1 (stereo not given)
Label: false
--
Compound: O=C1CC(c2ccc(O)cc2)Oc2ccccc21 (stereo not given)
Label: true

Now turn to the next compound.
Outcome? O=C1C[C@@H](c2ccccc2)Oc2cc(O)cc(O)c21
true

###

- Assay text: chemical genetic growth profiling, strain panel (AID 1159580);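 note: tested at 20 µM; growth read once vehicle control cultures reached saturation at 30 °C; 1 = growth at the plate median or of vehicle wells; lower values mean less growth of the strain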
- Conditions used: S. cerevisiae deletion strains, growth OD, locus YJL164C, strain tpk1
Hit rate of the full screen: of about 5,500 compounds, about 2,000 (36%) were called active. Another 18% or so got no clear call; they are omitted. Rule as the data show it: active = normalized growth mostly below about 0.91 (no sharp cut-off); inconclusive = no clear call, values can overlap the other calls; inactive = mostly above about 0.92. This is one part of the list.
Use one of these outcomes when replying: active, inactive

Outcome? COc1ccc(C[C@H]2NC[C@H](O)[C@H]2OC(C)=O)cc1
active

Outcome? O=C(/C=C/c1ccccc1)O[C@H]1C[C@@H](O)[C@]2(O)C=CO[C@@H](O[C@@H]3O[C@H](CO)[C@@H](O)[C@H](O)[C@H]3O)[C@H]12
inactive

Outcome? CNc1ccccc1C(=O)N1CCc2c([nH]c3ccccc23)C1=O
inactive

###

For each of the molecules below, state its normalized growth.
- Assay text: chemical genetic growth profiling, strain panel (AID 1159580);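 note: tested at 20 µM; growth read once vehicle control cultures reached saturation at 30 °C; 1 = growth at the plate median or of vehicle wells; lower values mean less growth of the strain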
- Conditions used: S. cerevisiae deletion strains, growth OD, locus YGL253W, strain hxk2, hits give low values
The whole screen tested about 5,500 compounds, of which about 2,000 (36%) were called active. About 18% were inconclusive and are not listed. This is one part of the list.
Answers are plain numbers.

Please review the entries below; each comes with its answer.
Molecule: CC(C)CC1C(=O)N2CCC[C@H]2C2(O)O[C@](NC(=O)C3C=C4c5cccc6[nH]c(Br)c(c56)C[C@H]4N(C)C3)(C(C)C)C(=O)N12 (stereo partly specified)
normalized growth: 0.993

Molecule: C/C=C(/C(=C/C)c1ccc(O)cc1)c1ccc(O)cc1
normalized growth: 0.971

Molecule: C1CCc2nnnn2CC1
normalized growth: 1

Molecule: COc1ccc2c(c1)[C@@]1(C)CCC(=O)C[C@H]1CC2
normalized growth: 0.932

Molecule: CC(=O)OC1CC23CC24CCC(OC2OCC(O)C(O)C2O)C(C)(C)C4CCC3C2(C)CC3OC4(CC(C)C3C12C)OC(O)C1(C)OC41 (stereo unspecified)
normalized growth: 1

Molecule: COc1cccc([C@]2(O)CCCC[C@H]2CN(C)C)c1
normalized growth: 0.988

Molecule: O=C(O)c1cc(=O)c2ccc(Cl)cc2[nH]1
normalized growth: 1.02

Molecule: CC[C@H]1OC(=O)C[C@@H](O)[C@H](C)[C@@H](O[C@@H]2O[C@H](C)[C@@H](O[C@H]3C[C@@](C)(O)[C@@H](O)[C@H](C)O3)[C@H](N(C)C)[C@H]2O)[C@@H](CC=O)C[C@@H](C)C(=O)/C=C/C(C)=C/[C@@H]1CO[C@@H]1O[C@H](C)[C@@H](O)[C@@H](OC)[C@H]1OC
normalized growth: 0.98

Hi team, please reply with normalized growth for each item in this list.
1. Cc1cc(=O)c2c(O)cc(O)c(C)c2o1
2. NC[C@@H]1O[C@H](O[C@@H]2[C@@H](CO)OC(O[C@@H]3[C@@H](O)[C@H](N)C[C@H](N)[C@H]3OC3O[C@H](CN)[C@@H](O)[C@H](O)[C@H]3N)[C@@H]2O)[C@H](N)[C@@H](O)[C@@H]1O (stereo partly specified)
3. CO[C@H]1C[C@H](O[C@H]2[C@H](C)[C@@H](OC3O[C@H](C)C[C@H](N(C)C)[C@H]3O)[C@@H](C)C[C@]3(CO3)C(=O)[C@H](C)[C@@H](O)[C@@H](C)[C@@H](C)OC(=O)[C@@H]2C)O[C@@H](C)[C@@H]1O (stereo partly specified)
4. CC(=O)O[C@H]1C(=O)[C@@]2(C)C([C@H](OC(=O)c3ccccc3)[C@]3(O)C[C@H](O)C(C)=C1C3(C)C)[C@]1(OC(C)=O)CO[C@@H]1C[C@@H]2O (stereo partly specified)
5. COc1c(O)cc2oc3cc(O)c(CC=C(C)C)c(O)c3c(=O)c2c1CC=C(C)C

1. 0.962
2. 1.03
3. 1.02
4. 0.99
5. 0.99

Hi team, please reply with normalized growth for each item in this list.
1. COC(=O)C1=COC(OC2OC(CO)C(O)C(O)C2O)C2C(C)CC(=O)C12O (stereo unspecified)
2. COc1cc(O)c2c(=O)cc(C)oc2c1CC=C(C)C
3. Cc1ccc2c(c1)CC[C@H]1CC(=O)CC[C@]21C

1. 1.01
2. 0.99
3. 1
